Values from patent US20260242735A1

target: human CD33 L134T (human, UniProt P20138 18-364); experiment: flow cytometry, HEK293-T, IgG;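 also: CD33 point mutants transiently expressed, antibody binding measured by fluorescence in duplicate, background subtracted and scaled to binding on wild-type CD33 as 100%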
Sequence (P20138 18-364 L134T limits assumed): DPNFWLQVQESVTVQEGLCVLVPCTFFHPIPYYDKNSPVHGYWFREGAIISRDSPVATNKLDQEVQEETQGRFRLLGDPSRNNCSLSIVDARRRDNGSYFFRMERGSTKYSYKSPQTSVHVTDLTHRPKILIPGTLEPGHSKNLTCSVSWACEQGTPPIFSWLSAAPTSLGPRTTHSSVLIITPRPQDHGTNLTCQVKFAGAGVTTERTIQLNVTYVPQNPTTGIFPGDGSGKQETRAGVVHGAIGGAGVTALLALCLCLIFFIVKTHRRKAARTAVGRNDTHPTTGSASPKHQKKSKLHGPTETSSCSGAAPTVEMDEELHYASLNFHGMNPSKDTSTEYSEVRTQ
Measured Mean % WT Binding, listed per entry for reference.

{"binder": "Refmab #4 (antibody, human IgG1, V domains shown, tested in IgG format) VH: QVQLVQSGAEVKKPGESVKVSCKASGYTFTNYGMNWVKQAPGQGLEWMGWINTYTGEPTYADKFQGRVTMTTDTSTSTAYMEIRNLGGDDTAVYYCARWSWSDGYYVYFDYWGQGTSVTVSS VL: DIVMTQSPDSLTVSLGERTTINCKSSQSVLDSSTNKNSLAWYQQKPGQPPKLLLSWASTRESGIPDRFSGSGSGTDFTLTIDSPQPEDSATYYCQQSAHFPITFGQGTRLEIK", "Mean % WT Binding": "90.3 % WT binding"}
{"binder": "Refmab #2 (antibody, human IgG1, V domains shown, tested in IgG format) VH: QVQLVQSGAEVKKPGSSVKVSCKASGGTFSDYAISWVRQAPGQGLEWMGRIIPILGVADYAQKFQGRVTITADKSTRTAYMELSSLRSEDTAVYYCARNWADAFDIWGQGTMVTVSS VL: DIQLTQSPSSLSASVGDRVTITCRASQGISSVLAWYQQKPGKAPKLLIYDASSLESGVPSRFSGSGSGTDFTLTISSLQPEDFATYYCQQFDSSITFGQGTKLEIK", "Mean % WT Binding": "99.2 % WT binding"}
{"binder": "Refmab #3 (antibody, human IgG1, V domains shown, tested in IgG format) VH: QVQLVQSGAEVKKPGSSVKVSCKASGYTFTDYNMHWVRQAPGQGLEWIGYIYPYNGGTGYNQKFKSKATITADESTNTAYMELSSLRSEDTAVYYCARGRPAMDYWGQGTLVTVSS VL: DIQMTQSPSSLSASVGDRVTITCRASESVDNYGISFMNWFQQKPGKAPKLLIYAASNQGSGVPSRFSGSGSGTDFTLTISSLQPDDFATYYCQQSKEVPWTFGQGTKVEIK", "Mean % WT Binding": "101 % WT binding"}
{"binder": "Refmab #1 (antibody, human IgG1, V domains shown, tested in IgG format; also called hP67.6) VH: EVQLVQSGAEVKKPGSSVKVSCKASGYTITDSNIHWVRQAPGQSLEWIGYIYPYNGGTDYNQKFKNRATLTVDNPTNTAYMELSSLRSEDTAFYYCVNGNPWLAYWGQGTLVTVSS VL: DIQLTQSPSTLSASVGDRVTITCRASESLDNYGIRFLTWFQQKPGKAPKLLMYAASNQGSGVPSRFSGSGSGTEFTLTISSLQPDDFATYYCQQTKEVPWSFGQGTKVEVK", "Mean % WT Binding": "91.6 % WT binding"}
